Reference source: patent US20250382359A1

Target: T1, Cyno GDF15 Fc (cyno, UniProt G7PWZ3 193-308, limits assumed)
T1 construct: also called cyno GDF15-Fc fusion; not shown: Fc part
T1 sequence: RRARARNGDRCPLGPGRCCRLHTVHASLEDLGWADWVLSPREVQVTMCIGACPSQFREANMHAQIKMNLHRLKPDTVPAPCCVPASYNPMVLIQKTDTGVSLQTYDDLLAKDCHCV
Assay: BLI Octet; antigen on sensor, 100 nM Fab (monovalent)

{"binder": "GDF15 antibody agent Clone T, Fab (Fab, V domains shown, Fab; CH1 and CL of the Fab not specified; also called Fab of Clone T) VH: QVQLVQSGAEVKKPGASVKVSCKASGYTFTSYGINWVRQAPGQGLEWMGWITAYSGDTNYAQKLQGRVTMTTDTSTSTAYMELRSLRSDDTAVYYCARGPGQYADVDVWGQGTMVTVSS VL: DIQMTQSPSSVSASVGDRVTITCRASQGISSWLAWYQQKPGKAPKLLIYAASSLQSGVPSRFSGSGSGTDFTLTISSLQPEDFATYYCQQASQFPITFGGGTKVEIK", "Kd": "0.369 nM"}
